- Tested system: HLA-DP DPA1*02:01/DPB1*01:01 (Homo sapiens, UniProt P04440+P20036, F191V/F38Y/F64Y/G113D/G114E/K142R/L158P/L37V/M105V/M116V/M62Q/P115A/Q81R/R125K/R223Q/T114A/T199I/T259P)
- Sequence (P20036 29-260 A42M/M62Q/Q81R/T114A/K142R/L158P/F191V/T259P, other chains not shown): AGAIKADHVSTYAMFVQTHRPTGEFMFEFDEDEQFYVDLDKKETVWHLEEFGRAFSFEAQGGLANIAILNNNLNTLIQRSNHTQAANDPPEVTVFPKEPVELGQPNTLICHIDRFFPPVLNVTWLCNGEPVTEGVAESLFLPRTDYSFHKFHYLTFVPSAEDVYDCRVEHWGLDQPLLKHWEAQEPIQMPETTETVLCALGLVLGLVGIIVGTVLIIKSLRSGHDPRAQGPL
- Assay overview: biochemical
Parameter measured: IC50 (nM)
Give the quantity in nM, number only.

Quick note, IC50 for "CC[C@H](C)[C@H](NC(=O)[C@@H](NC(=O)[C@H](CCCCN)NC(=O)[C@@H](NC(=O)[C@@H]1CCCN1C(=O)[C@H](Cc1c[nH]c2ccccc12)NC(=O)[C@H](CCCNC(=N)N)NC(=O)CNC(=O)[C@H](C)NC(=O)[C@H](CC(C)C)NC(=O)[C@H](CCCCN)NC(=O)[C@H](CC(C)C)NC(=O)[C@@H](NC(=O)[C@H](Cc1ccccc1)NC(=O)[C@H](Cc1ccc(O)cc1)NC(=O)[C@H](C)NC(=O)[C@@H](NC(=O)[C@@H](N)CCC(=O)O)[C@@H](C)O)[C@@H](C)CC)C(C)C)C(C)C)C(N)=O" landed at 792

* * *

IC50 values for the compounds below.
- Tested system: HLA-DR DRB1*15:01 (Homo sapiens, UniProt P01903+P01911)
- Assay overview: biochemical
- Format: binding
- Condition summary: read-out: Binding capacity/IC50 (nM) DRB1*15:01
Report the value in nM with no unit label.

IC50 value, target or system HLA-DR DRB1*15:01 (Homo sapiens, UniProt P01903+P01911), for "CC[C@H](C)[C@H](NC(=O)[C@H](Cc1ccc(O)cc1)NC(=O)CNC(=O)[C@H](CO)NC(=O)[C@H](C)NC(=O)[C@@H](NC(=O)[C@H](Cc1c[nH]cn1)NC(=O)[C@@H](NC(=O)[C@H](C)NC(=O)[C@@H](NC(=O)[C@H](CC(C)C)NC(=O)[C@@H](NC(=O)[C@@H](NC(=O)[C@H](CCCCN)NC(=O)CNC(=O)[C@@H](N)CCC(=O)O)[C@@H](C)CC)[C@@H](C)CC)C(C)C)C(C)C)C(C)C)C(=O)N[C@@H](CCC(=O)O)C(N)=O" : 146

Value sought: IC50, system HLA-DR DRB1*15:01 (Homo sapiens, UniProt P01903+P01911), item "CSCC[C@H](NC(=O)[C@H](CCCCN)NC(=O)[C@H](C)NC(=O)[C@H](Cc1ccc(O)cc1)NC(=O)[C@H](CCCCN)NC(=O)CNC(=O)[C@@H](NC(=O)[C@H](CCCCN)NC(=O)[C@H](CC(C)C)NC(=O)[C@H](CC(N)=O)NC(=O)[C@H](CCCCN)NC(=O)[C@H](Cc1ccccc1)NC(=O)[C@@H]1CCCN1C(=O)[C@H](CCC(=O)O)NC(=O)[C@@H](N)CCC(N)=O)[C@@H](C)O)C(N)=O" . Result: 47

Query "CC(C)C[C@H](NC(=O)[C@H](CCCCN)NC(=O)[C@@H](NC(=O)[C@H](CC(C)C)NC(=O)[C@@H]1CCCN1C(=O)[C@@H]1CCCN1C(=O)[C@@H](NC(=O)[C@H](CC(N)=O)NC(=O)[C@@H](NC(=O)[C@H](Cc1ccccc1)NC(=O)[C@H](CCC(=O)O)NC(=O)[C@H](Cc1c[nH]c2ccccc12)NC(=O)[C@@H](N)CCC(=O)O)C(C)C)[C@@H](C)O)C(C)C)C(=O)N[C@@H](Cc1c[nH]c2ccccc12)C(=O)N[C@@H](Cc1ccc(O)cc1)C(N)=O" on HLA-DR DRB1*15:01 (Homo sapiens, UniProt P01903+P01911); IC50 returned: 329

* * *

Catalogue of IC50 values
- Tested system: HLA-DR DRB1*16:02 (Homo sapiens, UniProt P01903+P01911, A100R/F76Y/I96L/Q99D/V115G)
- Assay overview: biochemical
- Format: binding
Ends that are not written are not given here.
The response must be a number in nM with no trailing unit.

| Substance | Readout number |
| --- | --- |
| EAVRHFPRPWLHGL-NH2 [vpr(29-42)] | 367 |

Attention now turns to another entry.
The substance VVIQDNSDIKVVPRRKAKII-NH2 [integrase(249-268)] , when measured on HLA-DR DRB1*16:02 (Homo sapiens, UniProt P01903+P01911, A100R/F76Y/I96L/Q99D/V115G), yielded IC50 of 500

* * *

- Tested system: HLA-DP DPA1*02:01/DPB1*05:01 (Homo sapiens, UniProt P04440+P20036, A65V/A84E/F191V/F64L/G113D/G114E/K142R/L158P/M116V/M62Q/P115A/Q81R/R125K/T114A/T199I/T259P/V234M)
- Sequence (P20036 29-260 A42M/M62Q/Q81R/T114A/K142R/L158P/F191V/T259P, other chains not shown): as the sequence (P20036 29-260 A42M/M62Q/Q81R/T114A/K142R/L158P/F191V/T259P, other chains not shown) above
- Assay overview: biochemical
- Type: binding
Ends that are not written are not given here.
Parameter measured: IC50 (nM)
Write it as a number; the unit nM goes unstated.

The substance listed as NYPIVQNLQGQMVHQAISPR-NH2 [p17(131-132)/p24(1-18)] shows IC50 equal to 2520

* * *

- Tested system: HLA-DR DRB1*04:05 (Homo sapiens, UniProt P01903+P01911, A100R/A169T/D86S/F76Y/I96L/K127E/L162R/M171V/N62H/P40V/Q125Y/R42H/S133A/S149N/S66Y/V115G/V209L/W38E)
- Assay overview: biochemical
- Format: binding
- Condition summary: read-out: Binding capacity/IC50 (nM) DRB1*04:05
Ends that are not written are not given here.
Rule for this label: rule met means IC50 is less than 400 nM; rule not met means IC50 is at least 400 nM.

| Substance | Category label |
| --- | --- |
| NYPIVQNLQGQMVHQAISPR-NH2 [p17(131-132)/p24(1-18)] | rule not met |
| SEELRSLYNTVATLYCVHQ-NH2 [p17(72-90)] | rule not met |
| DEELLKAVRIIKILYQSNP-NH2 [rev(9-27)] | rule met |

Qu. Lab note: IC50 threshold 400 nM. Does this substance come in strictly under it? YAKMRSAHTNDVKQL-NH2 [RT(354-368)]
Ans. rule not met

Qu. Strictly below 400 nM in IC50? IVALIIAIVVWTIV-NH2 [vpu(13-26)]
Ans. rule not met

Qu. Would you kindly verify if IC50 of LNKIVRMYSPVSILDI-NH2 [p24(138-153)] is strictly less than 400 nM?
Ans. rule met

* * *

- Tested system: HLA-DP DPA1*02:01/DPB1*01:01 (Homo sapiens, UniProt P04440+P20036, F191V/F38Y/F64Y/G113D/G114E/K142R/L158P/L37V/M105V/M116V/M62Q/P115A/Q81R/R125K/R223Q/T114A/T199I/T259P)
- Assay overview: biochemical
pIC50 values for the compounds below.
Note: pIC50 values are expressed as the negative base-10 logarithm of concentration in M.

| Compound string | Readout number |
| --- | --- |
| CC[C@H](C)[C@H](NC(=O)[C@H](CCSC)NC(=O)[C@@H](NC(=O)[C@H](CCC(N)=O)NC(=O)[C@H](Cc1c[nH]c2ccccc12)NC(=O)[C@H](CCCNC(=N)N)NC(=O)[C@H](CC(N)=O)NC(=O)[C@H](CCC(=O)O)NC(=O)[C@@H](N)CCSC)C(C)C)C(=O)N[C@H](C(=O)N[C@@H](Cc1c[nH]c2ccccc12)C(=O)N[C@@H](CCC(N)=O)C(=O)N[C@H](C(=O)N[C@@H](CC(=O)O)C(=O)N[C@@H](CCCNC(=N)N)C(N)=O)C(C)C)C(C)C | 5.99 |

Reported pIC50 for "CC[C@H](C)[C@H](NC(=O)[C@H](Cc1ccc(O)cc1)NC(=O)CNC(=O)[C@H](CO)NC(=O)[C@H](C)NC(=O)[C@@H](NC(=O)[C@H](Cc1c[nH]cn1)NC(=O)[C@@H](NC(=O)[C@H](C)NC(=O)[C@@H](NC(=O)[C@H](CC(C)C)NC(=O)[C@@H](NC(=O)[C@@H](NC(=O)[C@H](CCCCN)NC(=O)CNC(=O)[C@@H](N)CCC(=O)O)[C@@H](C)CC)[C@@H](C)CC)C(C)C)C(C)C)C(C)C)C(=O)N[C@@H](CCC(=O)O)C(N)=O" was 5.23

* * *

- Tested system: HLA-DR DRB1*09:01 (Homo sapiens, UniProt P01903+P01911, A100R/A103E/D57H/D86V/F55Y/F60I/F76Y/I96F/K127E/L162R/M171V/P40D/Q125H/Q99R/R33Q/R42F/S133A/S66N/T210M/V115G/W38K/Y107V/Y59G/Y89S)
- Assay overview: biochemical
- Format: binding
- Condition summary: read-out: Binding capacity/IC50 (nM) DRB1*09:01
Parameter measured: IC50
Please append the unit to your numeric answer.

According to the records, this compound "CC[C@H](C)[C@H](NC(=O)[C@H](Cc1ccc(O)cc1)NC(=O)CNC(=O)[C@H](CO)NC(=O)[C@H](C)NC(=O)[C@@H](NC(=O)[C@H](Cc1c[nH]cn1)NC(=O)[C@@H](NC(=O)[C@H](C)NC(=O)[C@@H](NC(=O)[C@H](CC(C)C)NC(=O)[C@@H](NC(=O)[C@@H](NC(=O)[C@H](CCCCN)NC(=O)CNC(=O)[C@@H](N)CCC(=O)O)[C@@H](C)CC)[C@@H](C)CC)C(C)C)C(C)C)C(C)C)C(=O)N[C@@H](CCC(=O)O)C(N)=O" displays IC50 of 58 nM
